Value source: patent US6452005B1

# TESTED ON: human JAK3 (Homo sapiens, UniProt P52333)
# Construct: KL-2 EBV-transformed human lymphoblastoid B cells (native JAK3 kinase assays); endogenous in cells; host or cells: KL-2 EBV-transformed human lymphoblastoid B cell line
# Sequence (P52333 whole entry): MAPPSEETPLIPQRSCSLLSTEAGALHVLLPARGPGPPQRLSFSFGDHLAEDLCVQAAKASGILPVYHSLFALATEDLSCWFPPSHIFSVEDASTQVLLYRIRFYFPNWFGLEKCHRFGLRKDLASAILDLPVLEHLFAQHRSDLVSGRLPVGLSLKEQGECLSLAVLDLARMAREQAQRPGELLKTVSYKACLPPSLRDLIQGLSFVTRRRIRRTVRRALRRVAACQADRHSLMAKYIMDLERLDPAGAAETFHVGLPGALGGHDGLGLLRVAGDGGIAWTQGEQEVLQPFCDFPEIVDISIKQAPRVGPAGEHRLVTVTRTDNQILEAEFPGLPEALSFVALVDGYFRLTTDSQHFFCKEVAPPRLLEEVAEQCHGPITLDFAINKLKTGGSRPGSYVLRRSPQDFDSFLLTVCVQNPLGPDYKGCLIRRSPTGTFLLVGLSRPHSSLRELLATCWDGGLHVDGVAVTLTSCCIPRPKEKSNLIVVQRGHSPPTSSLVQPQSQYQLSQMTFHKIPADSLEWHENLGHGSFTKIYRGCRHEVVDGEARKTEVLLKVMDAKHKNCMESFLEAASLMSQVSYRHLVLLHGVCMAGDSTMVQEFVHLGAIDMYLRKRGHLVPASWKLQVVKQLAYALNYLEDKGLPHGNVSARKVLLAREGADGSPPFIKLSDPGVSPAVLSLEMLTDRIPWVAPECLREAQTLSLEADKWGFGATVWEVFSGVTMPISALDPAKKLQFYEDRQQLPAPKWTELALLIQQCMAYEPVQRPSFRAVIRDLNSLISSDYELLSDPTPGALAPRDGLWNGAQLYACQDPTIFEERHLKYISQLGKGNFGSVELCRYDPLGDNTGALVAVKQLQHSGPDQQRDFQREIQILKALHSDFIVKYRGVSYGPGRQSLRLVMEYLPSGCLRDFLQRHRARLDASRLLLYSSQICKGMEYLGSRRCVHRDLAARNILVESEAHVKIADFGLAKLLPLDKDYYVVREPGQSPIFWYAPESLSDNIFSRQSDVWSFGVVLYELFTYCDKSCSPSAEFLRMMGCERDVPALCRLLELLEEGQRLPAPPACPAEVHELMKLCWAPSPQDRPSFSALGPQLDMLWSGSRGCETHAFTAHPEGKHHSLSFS
# PROCEDURE TEXT: JAK3 kinase inhibition (Table 1 IC50, immune complex kinase assay)
# Assay type: biochemical
# RUN PARAMETERS: Table 1; measured inhibition values for JAK3 kinase
pIC50: −log10 of the molar value.
Listed next: entries and their corresponding pIC50.
PROPERTY: pIC50

INSERT INTO measurements (smiles_repr, property, result) VALUES
  ('COc1cc2ncnc(Nc3ccccc3)c2cc1OC', 'pIC50', '< 3.52'),
  ('COc1cc2ncnc(Nc3cc(Br)c(O)c(Br)c3)c2cc1OC', 'pIC50', 4.96),
  ('COc1cc2ncnc(Nc3cc(Br)ccc3Br)c2cc1OC', 'pIC50', '< 3.70');
